The following molecules are shown together with reported pIC50 values.
- Protocol: Antagonist activity at P2Y12 receptor in human platelet rich plasma assessed as inhibition of ADP-induced aggregation
By convention, pIC50 is the negative base-10 log of a molar concentration.

Param item = "CCCC(=O)c1cnn(-c2ccc(NC(=O)c3cn(CCC(=O)O)c4ccc(C)cc34)cc2)c1C" ; retrieve measured pIC50.
5.40

---

- Protocol: Antagonist activity at P2Y12 receptor in human platelet rich plasma assessed as inhibition of ADP-induced aggregation
Value type: IC50 (nM)
Respond with the bare value in nM.

Below: 3 compounds and their reported IC50.
CCCC(=O)c1cnn(-c2ccc(NC(=O)c3cn(CC(=O)N4CCN(Cc5cc(C)on5)CC4)c4ccc(Cl)cc34)cc2)c1C = 300
CCCC(=O)c1cnn(-c2ccc(NC(=O)c3cn(CC(=O)N4CCN(CCO)CC4)c4ccc(Cl)cc34)cc2)c1C = 300
CCCC(=O)c1cnn(-c2ccc(NC(=O)c3cn(CC(=O)N4CCN(CCOC)CC4)c4ccc(Cl)cc34)cc2)c1C = 300

Now turn to the next compound.
I am curious: what IC50 value has been reported for "CCCC(=O)c1cnn(-c2ccc(NC(=O)c3cn(CC(=O)N4CCN(C)CC4)c4ccc(C)cc34)cc2)c1C" ?
500

All figures here come from BindingDB's records for doi:10.1021/jm500588w.
